# STUDY TARGET: T1, BRIBEC, extracellular domain of BMPR-IB
# T1 construct: extracellular domain; Biotinylated, immobilised on a streptavidin chip; also called BRIB receptor
# T1 sequence (P36898 14-126): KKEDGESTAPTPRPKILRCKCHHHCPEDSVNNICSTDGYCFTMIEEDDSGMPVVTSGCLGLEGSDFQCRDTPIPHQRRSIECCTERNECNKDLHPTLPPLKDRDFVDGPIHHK
# PROTOCOL: BIAcore, immobilised BRIB ectodomain, mutein as analyte, against BMP-2 wild type
RESULT TYPE: KD(Mut)/KD(WT) (ratio)
Answers are plain numbers, in ratio.

Study these solved cases before continuing.
{"BINDER": "BMP-2 D53A (ligand) QAKHKQRKRLKSSCKRHPLYVDFSDVGWNDWIVAPPGYHAFYCHGECPFPLAAHLNSTNHAIVQTLVNSVNSKIPKACCVPTELSAISMLYLDENEKVVLKNYQDMVVEGCGCR", "RESULT TYPE": "KD(Mut)/KD(WT)", "RECORDED RESULT": 0.34}
{"BINDER": "BMP-2 W28F (ligand, also called W28F mutein) QAKHKQRKRLKSSCKRHPLYVDFSDVGFNDWIVAPPGYHAFYCHGECPFPLADHLNSTNHAIVQTLVNSVNSKIPKACCVPTELSAISMLYLDENEKVVLKNYQDMVVEGCGCR", "RESULT TYPE": "KD(Mut)/KD(WT)", "RECORDED RESULT": 1.7}
{"BINDER": "BMP-2 Y103A (ligand) QAKHKQRKRLKSSCKRHPLYVDFSDVGWNDWIVAPPGYHAFYCHGECPFPLADHLNSTNHAIVQTLVNSVNSKIPKACCVPTELSAISMLYLDENEKVVLKNAQDMVVEGCGCR", "RESULT TYPE": "KD(Mut)/KD(WT)", "RECORDED RESULT": 3.2}

Would you kindly look at the next entry?
GET /values?readout=KD(Mut)/KD(WT)&item= BMP-2 D53P (ligand, also called BMP-2 proline mutein D53P) QAKHKQRKRLKSSCKRHPLYVDFSDVGWNDWIVAPPGYHAFYCHGECPFPLAPHLNSTNHAIVQTLVNSVNSKIPKACCVPTELSAISMLYLDENEKVVLKNYQDMVVEGCGCR
10
